Attribution: ChEMBL document CHEMBL5096209

Collected pKi values appear next to each entry.
target: GABA-A receptor; anion channel; test: Displacement of [3H]-muscimol from rat cortical synaptic membrane GABAA receptor assessed as inhibition constant by microscint-scintillation method; type: cell membranes, Cortex
// field semantics: pKi = negative decimal log of concentration (mol/L)

Please look at this compound and report its pKi: `Nc1cccc(C(=O)N2CCC3(CCNCC3)CC2)c1` 5.92

Please look at this compound and report its pKi: `O=C(c1cccc([N+](=O)[O-])c1)N1CCC2(CCNCC2)CC1` 5.82

Please look at this compound and report its pKi: `O=C(c1ccc(O)cc1)N1CCC2(CCNCC2)CC1` 6.07

Please look at this compound and report its pKi: `O=C(c1ccc(OCc2ccccc2)cc1)N1CCC2(CCNCC2)CC1` 6.00
